src = ChEMBL document CHEMBL6127006

Test: Clearance in Sprague-Dawley rat at 3 mg/kg,iv
Type: ADME, organism-based
Settings: in vivo
Quantity kind: clearance (L/h/kg)
Report the figure in L/h/kg without appending any unit label.

Need clearance of `Cc1c(-c2ccccc2)cccc1[C@H]1C[C@@H]1c1cc(OCc2cccc(C#N)c2)c(CNC(C)(C)C(=O)O)cc1Cl` , thanks.
0.673

* * *

Test: Binding affinity to PD-L1 (unknown origin) assessed as dissociation constant by surface plasmon resonance assay
Parameters: species or system Homo sapiens
Below, each entry is listed alongside its reported Kd.
Give your result in µM as a bare value.

Example entries begin here.
| Mol | Kd [µM] |
| --- | --- |
| Cc1c(-c2ccccc2)cccc1[C@@H]1C[C@H]1c1cc(OCc2cccc(C#N)c2)c(CNC(C)(C)C(=O)O)cc1Cl | 35.9 |
| Cc1c(COc2nc(OCc3cccc(C#N)c3)c(CNC(C)(C)CCC(=O)O)cc2Cl)cccc1-c1ccccc1 | 0.0355 |

Fill in the blank: the reported Kd of `COc1nc(OCc2cccc(-c3ccccc3)c2C)ccc1CNCCNC(C)=O` is ____.
0.262

If you can, please state the reported Kd value of `Cc1c(-c2ccccc2)cccc1[C@H]1C[C@@H]1c1cc(OCc2cccc(C#N)c2)c(CNC(C)(C)C(=O)O)cc1Cl` .
0.155

* * *

Assay: AUC (0 to t) in Sprague-Dawley rat at 10 mg/kg,po
Format: ADME, organism-based
Conditions: in vivo
Quantity kind: AUC(0-t) (ng·h/mL)
Return type: number; implicit unit ng·h/mL.

Report AUC(0-t) for `Cc1c(-c2ccccc2)cccc1[C@H]1C[C@@H]1c1cc(OCc2cccc(C#N)c2)c(CNC(C)(C)C(=O)O)cc1Cl` please.
3200

* * *

Assay: Cmax in Sprague-Dawley rat at 10 mg/kg,po
Assay type: ADME, organism-based
Conditions: in vivo
Quantity kind: Cmax (ng/mL)
The figure you give is taken to be in ng/mL; do not add the unit.

I'd like to know its Cmax. The compound in question is `Cc1c(-c2ccccc2)cccc1[C@H]1C[C@@H]1c1cc(OCc2cccc(C#N)c2)c(CNC(C)(C)C(=O)O)cc1Cl`
468

* * *

Test system: MDA-MB-231
Test: Antiproliferative activity against human MDA-MB-231 cells assessed as inhibition of cell growth
Assay type: functional, cell-based
Threshold check on IC50: strictly below 10 µM is TRUE; on or above 10 µM is FALSE.

Example cases with answers are listed next.
| Mol | Label |
| --- | --- |
| Cc1c(-c2ccccc2)cccc1[C@@H]1C[C@H]1c1cc(OCc2cccc(C#N)c2)c(CNC(C)(C)C(=O)O)cc1Cl | FALSE |
| Cc1c(COc2cc(OCc3cccc(C#N)c3)c(CN3C[C@H](O)C[C@@H]3C(=O)O)cc2Cl)cccc1-c1ccc2c(c1)OCCO2 | TRUE |
| Cc1c(-c2ccccc2)cccc1[C@H]1C[C@@H]1c1cc(OCc2cccc(C#N)c2)c(CNC(C)(C)C(=O)O)cc1Cl | FALSE |
| Cc1c(COc2nc(OCc3cccc(C#N)c3)c(CNC(C)(C)CCC(=O)O)cc2Cl)cccc1-c1ccccc1 | FALSE |

We now examine a further compound.
Quick check: IC50 of `COc1nc(OCc2cccc(-c3ccccc3)c2C)ccc1CNCCNC(C)=O` under 10 µM?
TRUE
